meta.source: patent US6723697B2

Molecular target: murine rIL-16 (Mus musculus, UniProt O54824)
Construct: polyhistidine fusion protein containing the 119 C-terminal residues encoded by the previously reported murine cDNA; polyhistidine (cleaved yes); made in house; host or cells: Escherichia coli strain HMS 174, vector pET16b
Sequence (O54824 1204-1322): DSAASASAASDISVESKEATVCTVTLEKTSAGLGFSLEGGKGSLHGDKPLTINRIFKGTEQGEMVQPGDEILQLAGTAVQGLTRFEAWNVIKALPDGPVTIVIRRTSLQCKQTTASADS
Experiment: murine rIL-16-stimulated murine splenocyte migration, modified Boyden chamber
Format: cell-based
Settings: rIL-16 10^-9 M; peptide concentration not given
Assay metric: IL-16-inhibitory activity (block of murine rIL-16-stimulated murine splenocyte migration)

{"columns": ["Substance", "Result"],
 "data": [
  ["WQCELS (OTHER INFORMATION: Description of Artificial Sequence:IL-16 antagonist peptide) [aa 347 L:E substituted]", "failed to block IL-16"],
  ["WACLLS (OTHER INFORMATION: Description of Artificial Sequence:IL-16 antagonist peptide) [aa 345 Q:A substituted]", "failed to block IL-16"]
]}
